Assay: Selectivity index, ratio of CC50 for human MT2 cells to EC50 for HIV-1 IIIB infected in human MT2 cells
Type: toxicity, cell-based
Settings: MT2 cells (uninfected, and infected with HIV-1 IIIB), read-out: Ratio CC50/EC50
measuredProperty: selectivity ratio
In your answer, state the number alone without any accompanying words.

Param item = "Cc1cccc2cc(/C=C3\NC(=O)N(Cc4ccccc4)C3=O)c(Cl)nc12" ; retrieve measured selectivity ratio.
117

###

System: Human immunodeficiency virus 1
Experiment: Antiviral activity against HIV-1 NL4-3 infected in human MT4 cells assessed as reduction in viral replication incubated for 48 hrs followed by addition of fresh medium containing compound measured after 2 days by ELISA
Assay type: functional, organism-based
Conditions: Human immunodeficiency virus 1, NL4-3, MT4, 48 h
measuredProperty: IC50

Param item = "C=C(C)[C@]12C[C@@H](COC(C)=O)[C@@]34OC5(O[C@@H]1[C@@H]3[C@@H]1O[C@]1(CO)[C@@H](O)[C@@]1(O)[C@H]4[C@H]([C@H](C)[C@@H]1C(=O)c1ccccc1)[C@H](C)C[C@H](C(=O)c1ccccc1)[C@H](C(=O)c1ccccc1)CCC[C@H]5O)O2" ; retrieve measured IC50.
≤ 0.25 nM

###

Tested on: Human immunodeficiency virus 1
Experiment: Antiviral activity against HIV-1 IIIB infected in human MT2 cells assessed as reduction in viral replication
Type: functional, organism-based
Settings: Human immunodeficiency virus 1, IIIB
measuredProperty: IC50 (nM)
State just the number; it will be interpreted in nM.

Param item = "Cc1cccc2cc(/C=C3\NC(=O)N(Cc4ccccc4)C3=O)c(Cl)nc12" ; retrieve measured IC50.
148

###

Tested on: Human immunodeficiency virus 1
Assay: Antiviral activity against HIV-1 infected in human C8166 cells assessed as reduction in virus-induced cytopathic effect by MTT assay
Type: functional, organism-based
Settings: Human immunodeficiency virus 1, C8166
Here, each record is paired with measured pEC50 data.
Scale: pEC50 equals -log10([C]), with [C] in mol/L.

INSERT INTO measurements (compound, measuredproperty, recordedvalue) VALUES
  ('C=CC(CO)[C@@H]1C[C@H]2c3[nH]c4ccccc4c3CCN2C(=O)[C@@H]1CO (some centres not stated)', 'pEC50', 4.91);

Proceeding to the next compound to report its pEC50.
Param item = C=CC(CO)[C@@H]1C[C@H]2c3[nH]c4ccccc4c3CCN2C(=O)[C@H]1CO (some centres not stated) ; retrieve measured pEC50.
4.91

###

Assay: Selectivity index, ratio of IC50 for human 1A2 cells to EC50 for HIV-1 MC99 harboring deltaTat/Rev infected in human 1A2 cells
Assay type: toxicity, cell-based
Details: read-out: Ratio IC50/EC50
measuredProperty: selectivity ratio

INSERT INTO measurements (smilesrepresentation, measuredproperty, recordedvalue) VALUES
  ('COc1cc2c(c(O)c1OC)C(=O)C[C@@H](c1cc(O)c(OC)c(O)c1)O2', 'selectivity ratio', 1.12),
  ('COc1cc(OC)c([C@@H]2CC[C@H]3C[C@@H](c4cc(OC)c(OC)cc4OC)Oc4cc(OC)c(O)c2c43)cc1OC', 'selectivity ratio', 3.7);

Proceeding to the next compound to report its selectivity ratio.
Param item = "COc1cc([C@@H]2CC(=O)c3c(cc(OC)c(OC)c3O)O2)cc(OC)c1OC" ; retrieve measured selectivity ratio.
1.12

###

System: Human immunodeficiency virus 1
Experiment: Antiviral activity against HIV-1 IIIB infected in human MT4 cells assessed as reduction in virus-induced cytopathic effect incubated for 5 days by MTT assay
Type: functional, organism-based
Details: Human immunodeficiency virus 1, IIIB, MT4, 120 h
measuredProperty: pIC50
Scale: pIC50 equals -log10([C]), with [C] in mol/L.

Param item = "N#Cc1ccc(Nc2nccc(/C(=N\O)c3ccc(-c4ccc(F)cc4)cc3F)n2)cc1" ; retrieve measured pIC50.
4.92

###

Here, each record is paired with measured pIC50 data.
Target: Human immunodeficiency virus type 1 reverse transcriptase (Human immunodeficiency virus 1, UniProt Q72547)
Experiment: Inhibition of HIV-1 reverse transcriptase using ABTS as substrate and RNA template primed with oligo(dT)12-18 in presence of digoxigenin/biotin-labeled nucleotides by ELISA
Scale: pIC50 equals -log10([C]), with [C] in mol/L.

INSERT INTO results (smilesrepresentation, recordedvalue) VALUES
  ('COC(=O)/C=C/c1c(-c2cccs2)[nH]c2ccccc12', 6.14);

Param item = "COC(=O)/C=C\c1c(-c2cccs2)[nH]c2ccccc12" ; retrieve measured pIC50.
8.03

###

Here, each record is paired with measured IC50 data.
Test system: Human immunodeficiency virus 1
Experiment: Antiviral activity against HIV-1 NL4-3 infected in human MT4 cells assessed as reduction in viral replication incubated for 48 hrs followed by addition of fresh medium containing compound measured after 2 days by ELISA
Format: functional, organism-based
Conditions: Human immunodeficiency virus 1, NL4-3, MT4, 48 h
State just the number; it will be interpreted in nM.

Param item = "CCCCC/C=C/C=C/O[C@@]12[C@@H]([C@H]3OCO[C@@]3(C(C)=O)[C@H](OC(=O)CCCC)[C@H]1C)[C@@H]1O[C@]1(CO)[C@@H](O)[C@]1(O)C(=O)C(C)=C[C@H]12" ; retrieve measured IC50.
0.9

Param item = "CCCCC/C=C/C=C/O[C@@]12[C@@H]([C@H]3OCO[C@@]3(C(C)=O)[C@H](OC(=O)CCCCC)[C@H]1C)[C@@H]1O[C@]1(CO)[C@@H](O)[C@]1(O)C(=O)C(C)=C[C@H]12" ; retrieve measured IC50.
0.9

Param item = "CCCCC/C=C\C=C/O[C@@]12[C@@H]([C@H]3OCO[C@@]3(C(C)=O)[C@H](OC(C)=O)[C@H]1C)[C@@H]1O[C@]1(CO)[C@@H](O)[C@]1(O)C(=O)C(C)=C[C@H]12" ; retrieve measured IC50.
0.9

###

Target: Human immunodeficiency virus type 1 integrase (Human immunodeficiency virus 1, UniProt Q7ZJM1)
Sequence (Q7ZJM1 whole entry): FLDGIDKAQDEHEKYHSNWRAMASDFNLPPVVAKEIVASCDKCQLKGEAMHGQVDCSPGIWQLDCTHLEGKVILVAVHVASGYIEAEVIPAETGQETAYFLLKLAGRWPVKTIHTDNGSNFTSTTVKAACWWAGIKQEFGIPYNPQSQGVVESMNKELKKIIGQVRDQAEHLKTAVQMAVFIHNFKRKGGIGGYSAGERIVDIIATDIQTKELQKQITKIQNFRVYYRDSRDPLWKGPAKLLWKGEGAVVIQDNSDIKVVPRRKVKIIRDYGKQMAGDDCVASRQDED
Assay: Inhibition of recombinant HIV-1 subtype C integrase using double-stranded FITC-labelled target DNA as substrate pre-incubated for 45 mins followed by substrate addition measured after 60 mins by strand transfer inhibition assay
measuredProperty: IC50

INSERT INTO assay_data (smilesrepresentation, recordedvalue) VALUES
  ('CC(=O)N[C@H]1[C@H](O[C@H]2CC[C@]3(C)[C@H]4CC=C5[C@@H]6CC(C)(C)CC[C@]6(C(=O)O)CC[C@@]5(C)[C@]4(C)CC[C@H]3C2(C)C)O[C@H](CO)[C@@H](O)[C@@H]1O', '18.3 µM');

Proceeding to the next compound to report its IC50.
Param item = "COc1cc2c(c(O)c1C)Oc1c(C=O)c(O)cc(C)c1C(=O)O2" ; retrieve measured IC50.
4.65 µM

###

Molecular target: UniProtKB Q72547
Experiment: Inhibition of HIV-1 LTR reverse transcriptase infected in human CEM cells using RNA template incubated for 1 hr by RT-PCR based cell-free assay
measuredProperty: pIC50
Scale: pIC50 equals -log10([C]), with [C] in mol/L.

INSERT INTO measurements (compound, system, recordedvalue) VALUES
  ('C=CCOCc1cn(C2CCON2C(=O)OCc2ccccc2)c(=O)[nH]c1=O (stereo not drawn)', 'UniProtKB Q72547', 8.00),
  ('C#CCOCc1cn(C2CCON2C(=O)OCc2ccccc2)c(=O)[nH]c1=O (stereo not drawn)', 'UniProtKB Q72547', 7.30);

Proceeding to the next compound to report its pIC50.
Param item = O=C(OCc1ccccc1)N1OCCC1n1cc(COCc2ccccc2)c(=O)[nH]c1=O (stereo not drawn) ; retrieve measured pIC50.
6.00

###

Assay: Selectivity index, ratio of CC50 for human MT4 cells to EC50 for HIV-1 IIIB infected in human MT4 cells
Format: toxicity, cell-based
Details: MT4 cells (uninfected, and infected with HIV-1 IIIB), read-out: Ratio CC50/EC50
measuredProperty: selectivity ratio

Param item = "N#Cc1ccc(Nc2nccc(/C(=N\O)c3ccc(-c4ccc(F)cc4)cc3F)n2)cc1" ; retrieve measured selectivity ratio.
> 24100

###

Target: UniProt:Q72547
Assay: Inhibition of recombinant HIV-1 reverse transcriptase at 200 ug/ml by ELISA relative to control
Details: dose 200.0 µg/ml
measuredProperty: inhibition (%)
State just the number; it will be interpreted in %.

INSERT INTO measurements (smilesrepresentation, recordedvalue) VALUES
  ('O=C1C[C@@H](c2ccc(O)cc2)Oc2cc(O)cc(O)c21', 44.2);

Param item = "CC(C)=CCc1cc(/C=C/C(=O)O)cc(CC=C(C)C)c1" ; retrieve measured inhibition.
41.6

Param item = "O=c1c(O)c(-c2ccc(O)c(O)c2)oc2cc(O)cc(O)c12" ; retrieve measured inhibition.
43.4

Param item = "COc1cc(-c2oc3cc(O)cc(O)c3c(=O)c2O)ccc1O" ; retrieve measured inhibition.
57
